# Test system: T98G (temozolomide resistant glioblastoma)
# TEST_DESCRIPTION: Cell growth inhibition, MTT assay, T98G
# Type: cell-based
# CONDITION: Homo sapiens, mean ± SD, Table S1
// reported pIC50 per item
Scale: pIC50 equals -log10([C]), with [C] in mol/L.

-- ask What value of pIC50 has been recorded for this entry: COc1cc(-c2nnnn2-c2ccc3c(ccn3C)c2)cc(Cl)n1
-- reply 7.26

-- ask // next record Cn1cc(C=O)c2cc(-n3nnnc3-c3cc(Cl)nc(Cl)c3)ccc21
-- reply 7.58

-- ask // next record COc1cc(-c2nnnn2-c2ccc3c(c2)c(C=NO)cn3C)cc(Cl)n1
-- reply 6.74

====

// reported solubility at 72 h per item
# TEST_DESCRIPTION: Aqueous solubility, shake-flask method, phosphate buffer pH 7.4
# Format: physicochemical
# CONDITION: thermodynamic from solid, phosphate buffer pH 7.4, shake-flask, mean ± SD of three experiments
Mention the unit after the number when you answer.

The cases that follow already have their solubility at 72 h on record.
COMPOUND | solubility at 72 h
Cn1cc(C=O)c2cc(-n3nnnc3-c3cc(Cl)nc(Cl)c3)ccc21 | 33.1 µg/mL
CSc1cc(-c2nnnn2-c2ccc3c(c2)c(C=O)cn3C)cc(SC)n1 | 41.2 µg/mL
COc1ccc(/C=C\c2cc(OC)c(OC)c(OC)c2)cc1O [CA-4, combretastatin A4, reference compound] | 1.1 µg/mL

-- ask What value of solubility at 72 h has been recorded for this entry: Cn1cc(C#N)c2cc(-n3nnnc3-c3cc(Cl)nc(Cl)c3)ccc21
-- reply 25.3 µg/mL

====

# Test system: U87 MG (glioblastoma)
# TEST_DESCRIPTION: Cell growth inhibition, MTT assay, U87 MG
# Format: cell-based
# CONDITION: Homo sapiens, U-87 MG, 72 h, 72 h after drug exposure
pIC50: −log10 of the molar value.
ENDPOINT_NAME: pIC50

-- ask What value of pIC50 has been recorded for this entry: Cn1nnc2c(C(N)=O)ncn2c1=O [TMZ, temozolomide, reference compound]
-- reply < 4.00

====

# TEST_DESCRIPTION: Aqueous solubility, shake-flask method, phosphate buffer pH 7.4
# Assay type: physicochemical
# CONDITION: thermodynamic from solid, phosphate buffer pH 7.4, shake-flask, mean ± SD of three experiments
Tag: true if measured solubility at 72 h is not below 50 µg/mL, false if it is.

Please review the following examples before continuing.
SMILES_RECORD | CATEGORY_LABEL
CSc1cc(-c2nnnn2-c2ccc3c(c2)c(C=NO)cn3C)cc(SC)n1 | false
COc1cc(-c2nnnn2-c2ccc3c(c2)c(C=O)cn3C)cc(Cl)n1 | false
CSc1cc(-c2nnnn2-c2ccc3c(ccn3C)c2)cc(SC)n1 | false
Cn1ccc2cc(-n3nnnc3-c3cc(Cl)nc(Cl)c3)ccc21 | false

Let us examine a further case.
-- ask Is solubility at 72 h at least 50 µg/mL? Consider COc1cc(-c2nnnn2-c2ccc3c(c2)c(C=NO)cn3C)cc(Cl)n1
-- reply true

====

# System: HT-29 (colon adenocarcinoma)
# TEST_DESCRIPTION: Cell growth inhibition, MTT assay, HT-29, without or with verapamil
# Format: cell-based, human
# CONDITION: mean ± SD, Table S1, in the presence of verapamil (10 µM)
ENDPOINT_NAME: pIC50
Scale: pIC50 equals -log10([C]), with [C] in mol/L.

The cases that follow already have their pIC50 on record.
MOLECULE | SYSTEM_UNDER_TEST | ENDPOINT_NAME | MEASUREMENT
CSc1cc(-c2nnnn2-c2ccc3c(ccn3C)c2)cc(Cl)n1 | HT-29 (colon adenocarcinoma) | pIC50 | 7.21
COc1ccc(/C=C\c2cc(OC)c(OC)c(OC)c2)cc1O [CA-4, combretastatin A4, reference compound] | HT-29 (colon adenocarcinoma) | pIC50 | 6.48
COc1cc(-c2nnnn2-c2ccc3c(c2)c(C=NO)cn3C)cc(Cl)n1 | HT-29 (colon adenocarcinoma) | pIC50 | 6.64
COc1ccc(S(=O)(=O)Nc2cccnc2Nc2ccc(O)cc2)cc1 [ABT-751, reference compound] | HT-29 (colon adenocarcinoma) | pIC50 | 6.60

Please look at the following molecule next.
-- ask What value of pIC50 has been recorded for this entry: CSc1cc(-c2nnnn2-c2ccc3c(c2)c(C#N)cn3C)cc(Cl)n1
-- reply 6.45
